# Test system: T-47D breast
# Protocol Notes: NCI-60 one-dose screen, 48 h (100 = growth as untreated, 0 = no growth, -100 = all killed)
# Recorded Conditions: 10 µM unless noted
The panel holds about 83,000 compounds, 20% with a hit somewhere; the sample as a whole holds those more often.
So basically: growth at 90% or higher? That is condition met. Lower than 90%? That is condition not met.

Molecule | System | Cat
CCN(CC)CCCNc1cccc2c(C)cc(OC)nc12 | T-47D breast | condition met

Data request: Reported growth at or above 90%? `CC(C)=CCC[C@H](C)c1ccc(C)c2c1OCN(CCO)C2`
Data returned: condition not met

Data request: Then this molecule: Nc1nc(N)c2c(n1)NC(c1sc(Cl)nc1Cl)CC(c1ccc3c(c1)OCO3)=N2 (stereo unspecified)
Data returned: condition not met

Data request: Then this molecule: CCN(CC)CCCC(C)Nc1cnc(C(=O)Nc2ccc(Cl)c3cccnc23)cn1 (stereo unspecified)
Data returned: condition not met

Data request: Then this molecule: `Oc1ccc(-c2cnc(-c3ccccc3)[nH]2)c(O)c1`
Data returned: condition met

Data request: Then this molecule: `N#Cc1ccc(NC(=O)Nc2nc3ccc(OC(F)(F)F)cc3s2)cc1`
Data returned: condition not met

Data request: Then this molecule: `O=C(Nc1ccc(Br)cc1)Nc1ccccc1Cl`
Data returned: condition not met

Data request: Then this molecule: `N#Cc1c(N)c(C(=O)c2ccc3c(c2)OCCO3)n2c1CCCC2`
Data returned: condition not met

====

# Test system: SK-MEL-28 melanoma
# Protocol Notes: NCI-60 one-dose screen, 48 h
# Recorded Conditions: 10 µM unless noted
Compounds without any hit were thinned out: in the full panel of roughly 83,000, 20% have a hit. Calls of active or inactive are those of the source. How the source made its calls: active means growth percent below 10; inactive means the rest.
// one of class 1 for active, class 0 for inactive, no free text

Observe how each entry below is paired with its result.
Entry Smiles | System | Cat
Cc1cc(N=Nc2ccc(-c3ccc(N=Nc4ccc(O)c(C(=O)O)c4)cc3)cc2)c(N)c(N=Nc2ccc(C(=O)O)cc2)c1N | SK-MEL-28 melanoma | class 0
Cc1cc(Cl)c2ccc(N(C)C)cc2n1 | SK-MEL-28 melanoma | class 0
COc1ccc(/C=c2\c(=O)n(-c3ccccc3)c3nn4c(=O)c(=O)[nH]nc4n23)cc1 | SK-MEL-28 melanoma | class 0
COc1cc(/C=C/c2ccc3c(Br)cc(Br)c(O)c3n2)ccc1O | SK-MEL-28 melanoma | class 0

Here is the next item to consider.
Data request: GET /call?item= `CCCCCCCCCCCCCCCCCC1=NC(C)(C)CN1C(C)(C)CO` returns the recorded outcome of this test.
Data returned: class 1

====

# System: NCI-H322M lung
# Protocol Notes: NCI-60 one-dose screen, 48 h
# Recorded Conditions: 10 µM unless noted
The panel holds about 83,000 compounds, 20% with a hit somewhere; the sample as a whole holds those more often. The source made the active and inactive calls. Rule for the calls: active = growth percent below 10; inactive = the rest.
// one of active, inactive, no free text

Observe how each entry below is paired with its result.
Molecule | Cat
Cc1ccc(NC(=O)c2nc(S(C)(=O)=O)oc2-c2ccc(F)cc2)cc1Nc1ccc2ncn(C)c(=O)c2c1 | inactive
C=CC[C@]1(O)CC[C@H]2[C@@H]3CCc4cc(O)ccc4[C@H]3CC[C@@]21C | inactive
CC(=O)c1c(O)c(C)c(O)c2c1OC1=CC(=O)/C(=C(/C)N)C(=O)C12C (stereo unspecified) | inactive
Cc1cc2nc3c(=O)[nH]c(=O)nc-3n(CC=O)c2cc1C | inactive
CC(=O)c1nn(-c2ccccc2)/c(=N\N=C\c2coc3ccc(F)cc3c2=O)s1 | inactive
O=C(N=Nc1c(Cl)c(O)c2ccccc2c1O)C(=O)Nc1cccc(C(F)(F)F)c1 | inactive
CN1CCN(Cc2ccc(NC(=O)c3cncc(C#Cc4cnc5cccnn45)c3)cc2C(F)(F)F)CC1 | active
O=C1c2ccccc2C(=O)c2c1oc1ccc3ccccc3c21 | inactive
COc1cc2c(cc1C)NC(=O)/C2=C\c1c[nH]c2ccccc12 | inactive
C=C(C)C1CCC2(C(=O)O)CCC3(C)C(CCC4C5(C)CCC(O)C(C)(C)C5CCC43C)C12 (stereo unspecified) | active

Data request: GET /call?item= `Cc1cc(O)ccc1C1=NN(c2ccc(S(N)(=O)=O)cc2)C(=O)CC1` returns the recorded outcome of this test.
Data returned: inactive

Data request: Then this molecule: COc1ccc(C(=O)C(C#N)c2cc(OC)c(OC)c(OC)c2)cc1 (stereo unspecified)
Data returned: inactive

Data request: Then this molecule: Fc1[nH]nc2ccc([C@@H]3Nc4ccc5[nH]ncc5c4[C@H]4C5CCC(C5)[C@@H]34)cc12 (stereo partly specified)
Data returned: inactive
